- System Tested: UniProt:P05067
- Sequence (P05067 672-713): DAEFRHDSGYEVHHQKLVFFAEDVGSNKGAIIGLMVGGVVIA
- Assay Explanation: Th-T (thioflavin-T) assay of Aβ42 aggregation
- Format: biochemical
- Run Conditions: reading M31; Supplementary Fig. 47 source data
Recorded Th-T fluorescence, mean of three wells for the following compounds
Give a plain numeric answer without units written out.

1. C=C1CCC2C(C)(CC(=O)C=C(C)C)C(O)CCC2(C)C1Cc1c(O)c(C)c(C)oc1=O (centres unmarked) = 3.431
2. C=C1CCC2C(C)(CC(=O)C=C(C)C)C(O)CCC2(C)C1Cc1c(OC)oc(C)c(C)c1=O (centres unmarked) = 3.6544
3. C=C1CC[C@H]2[C@]3(C)C[C@H](C=C(C)C)O[C@H]3CC[C@]2(C)[C@@H]1Cc1c(OC)oc(C)c(C)c1=O = 4.06
4. C=C1CC[C@H]2[C@]3(C)C[C@H](C=C(C)C)O[C@H]3CC[C@]2(C)[C@@H]1Cc1c(OC)oc(CO)c(C)c1=O = 3.715
5. C=C1CC[C@@H]2[C@](C)(CC[C@H]3O[C@H](C=C(C)C)C[C@@]23C)[C@@H]1Cc1c(O)c(C)c(C)oc1=O = 2.961
6. C=C1CCC2C3(C)CC(C=C(C)C)OC3CCC2(C)C1Cc1c(OC)oc(C)c(C)c1=O (centres unmarked) = 3.799
7. C=C1CCC2C(C)(CC(=O)C=C(C)C)C(O)CCC2(C)C1Cc1c(OC)oc(CO)c(C)c1=O (centres unmarked) = 3.256

Now for another entry.
Lookup: // returns reported Th-T fluorescence, mean of three wells for input C=C1CC[C@H]2[C@]3(C)C[C@H](C=C(C)C)O[C@H]3CC[C@]2(C)[C@@H]1Cc1c(O)c(C)c(C)oc1=O
Found: 2.9009
